The measurements presented in this section are drawn from ChEMBL document CHEMBL1136799.

assay: T 1/2 in guinea pig; assay type: ADME, organism-based, Cavia porcellus; conditions: in vivo
readout-label: half-life (h)

> print(dat)
                    structure.smiles.string  readout.unit  measured.number
1  CC(C)c1ccc(NC(=O)N2CCC[C@H]2C(=O)N2CC[C@H]3[C@H]2[C@H](C)C(=O)N3c2nc3ccccc3s2)cc1             h                1

* * *

Target: Capsid scaffolding protein (Human cytomegalovirus (strain AD169) (HHV-5) (Human herpesvirus 5))
Sequence (P16753 whole entry): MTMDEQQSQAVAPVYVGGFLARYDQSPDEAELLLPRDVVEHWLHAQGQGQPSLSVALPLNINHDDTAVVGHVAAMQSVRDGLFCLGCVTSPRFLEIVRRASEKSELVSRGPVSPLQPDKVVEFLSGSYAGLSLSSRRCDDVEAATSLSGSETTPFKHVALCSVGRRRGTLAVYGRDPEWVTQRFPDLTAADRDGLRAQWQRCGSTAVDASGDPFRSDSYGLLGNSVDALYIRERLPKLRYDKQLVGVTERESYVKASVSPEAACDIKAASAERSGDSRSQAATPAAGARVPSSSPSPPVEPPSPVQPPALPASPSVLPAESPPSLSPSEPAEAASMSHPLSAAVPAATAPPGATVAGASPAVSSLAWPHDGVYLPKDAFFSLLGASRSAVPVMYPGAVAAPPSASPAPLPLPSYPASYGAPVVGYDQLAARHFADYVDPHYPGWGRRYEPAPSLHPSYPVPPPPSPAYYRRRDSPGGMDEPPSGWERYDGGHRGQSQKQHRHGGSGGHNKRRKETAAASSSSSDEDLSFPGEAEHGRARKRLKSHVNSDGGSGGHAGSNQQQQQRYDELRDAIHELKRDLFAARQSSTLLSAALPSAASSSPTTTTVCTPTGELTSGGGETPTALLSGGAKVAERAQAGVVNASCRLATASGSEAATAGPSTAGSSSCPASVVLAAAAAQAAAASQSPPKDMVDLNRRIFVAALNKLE
Assay: Inhibition of human cytomegalovirus protease in HCMV pNA assay.
readout-label: IC50

> print(dat)
                     structure.smiles.string      result
 1  C[C@@H]1C(=O)N(C(=O)C2CC2)[C@H]2CCN(C(=O)[C@@H]3CCCN3C(=O)Nc3cccc(Cl)c3)[C@H]12      650 nM
 2  C[C@@H]1C(=O)N(C(=O)C2CC2)[C@H]2CCN(C(=O)[C@@H]3CCCN3S(=O)(=O)c3ccccc3)[C@H]12     1800 nM
 3  CC(C)c1ccc(NC(=O)N2CCC[C@H]2C(=O)N2CC[C@H]3[C@H]2[C@H](C)C(=O)N3c2nc3ccc(OC(F)(F)F)cc3s2)cc1      460 nM
 4  CC(C)c1ccc(NC(=O)N2CCC[C@H]2C(=O)N2CC[C@H]3[C@H]2[C@H](C)C(=O)N3C(=O)C2C(C)(C)C2(C)C)cc1  > 20000 nM
 5  C[C@@H]1C(=O)N(C(=O)C2CC2)[C@H]2CCN(C(=O)[C@@H]3CCCN3S(=O)(=O)c3cccc4cc(N(C)C)ccc34)[C@H]12     1100 nM
 6  C[C@@H]1C(=O)N(C(=O)C2CC2)[C@H]2CCN(C(=O)[C@@H]3CCCN3C(=O)Nc3ccccc3)[C@H]12     1400 nM
 7  CC(C)Oc1ccc(S(=O)(=O)N2CCC[C@H]2C(=O)N2CC[C@H]3[C@H]2[C@H](C)C(=O)N3C(=O)C2CC2)cc1      400 nM
 8  CC(C)c1ccc(NC(=O)N2CCC[C@H]2C(=O)N2CC[C@H]3[C@H]2[C@H](C)C(=O)N3C(=O)C2CC2)cc1      200 nM
 9  C[C@@H]1C(=O)N(C(=O)C2CC2)[C@H]2CCN(C(=O)[C@@H]3CCCN3C(=O)c3ccc(-c4ccc(Cl)cc4)cc3)[C@H]12     1400 nM
10  COc1ccc(C)c2sc(N3C(=O)[C@@H](C)[C@@H]4[C@@H]3CCN4C(=O)[C@@H]3CCCN3C(=O)Nc3ccc(C(C)C)cc3)nc12     1100 nM
11  CC(C)c1ccc(NC(=O)N2CCC[C@H]2C(=O)N2CC[C@H]3[C@H]2[C@H](C)C(=O)N3c2nc3ccc(CO)cc3s2)cc1      310 nM
12  CC(C)c1ccc(NC(=O)N2CCC[C@H]2C(=O)N2CC[C@H]3[C@H]2[C@H](C)C(=O)N3c2nc3cccnc3s2)cc1      290 nM
13  Cc1c(C(=O)N2CCC[C@H]2C(=O)N2CC[C@H]3[C@H]2[C@H](C)C(=O)N3C(=O)C2CC2)sc2ccc(Cl)cc12      190 nM
14  CC(C)c1ccc(NC(=O)N2CCC[C@H]2C(=O)N2CC[C@H]3[C@H]2[C@H](C)C(=O)N3c2nc3cc(Cl)ccc3s2)cc1      460 nM
15  C[C@@H]1C(=O)N(C(=O)C2CC2)[C@H]2CCN(C(=O)[C@@H]3CCCN3S(=O)(=O)c3cccc4ccccc34)[C@H]12      370 nM
16  CC(C)c1ccc(NC(=O)N2CCC[C@H]2C(=O)N2CC[C@H]3[C@H]2[C@H](C)C(=O)N3c2nc3ccc(F)cc3s2)cc1      360 nM
17  CC(C)c1ccc(C(=O)N2CCC[C@H]2C(=O)N2CC[C@H]3[C@H]2[C@H](C)C(=O)N3C(=O)C2CC2)cc1      390 nM
18  C[C@@H]1C(=O)N(C(=O)C2CC2)[C@H]2CCN(C(=O)[C@@H]3CCCN3C(=O)Nc3cccc(C(F)(F)F)c3)[C@H]12      590 nM
19  CCOC(=O)c1ccc2nc(N3C(=O)[C@@H](C)[C@@H]4[C@@H]3CCN4C(=O)[C@@H]3CCCN3C(=O)Nc3ccc(C(C)C)cc3)sc2c1      350 nM
20  C[C@@H]1C(=O)N(C(=O)C2CC2)[C@H]2CCN(C(=O)[C@@H]3CCCN3C(=O)Nc3ccc(C(F)(F)F)cc3)[C@H]12      230 nM
21  CC(C)c1ccccc1NC(=O)N1CCC[C@H]1C(=O)N1CC[C@H]2[C@H]1[C@H](C)C(=O)N2C(=O)C1CC1      470 nM
22  CCCOc1ccc(NC(=O)N2CCC[C@H]2C(=O)N2CC[C@H]3[C@H]2[C@H](C)C(=O)N3C(=O)C2CC2)cc1      210 nM
23  C[C@@H]1C(=O)N(C(=O)C2CC2)[C@H]2CCN(C(=O)[C@@H]3CCCN3C(=O)Nc3ccc(-c4ccc(Cl)cc4)cc3)[C@H]12      260 nM
24  C[C@@H]1C(=O)N(C(=O)C2CC2)[C@H]2CCN(C(=O)[C@@H]3CCCN3C(=O)Nc3cccc4ccccc34)[C@H]12      650 nM
25  C[C@@H]1C(=O)N(C(=O)C2CC2)[C@H]2CCN(C(=O)[C@@H]3CCCN3C(=O)c3ccc(-c4ccccc4)cc3)[C@H]12      300 nM
26  C[C@@H]1C(=O)N(C(=O)C2CC2)[C@H]2CCN(C(=O)[C@@H]3CCCN3S(=O)(=O)c3ccc4ccccc4c3)[C@H]12    < 190 nM
27  C[C@@H]1C(=O)N(C(=O)C2CC2)[C@H]2CCN(C(=O)[C@@H]3CCCN3S(=O)(=O)Cc3ccccc3)[C@H]12     2100 nM
